Tested on: 252836-082-R-J2-PDC tumor spheroids, viability;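 also: spheroids exposed to agents for seven days before readout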
Assay: Anticancer human tumor 252836-082-R-J2-PDC patient-derived head and neck squamous cell carcinoma cell line growth inhibition [PI3K]; active = viability on the fitted dose curve at most 10% of control; inactive = the rest
Conditions: second compound 1 µM; first compound 3.16 µM; spheroids with HUVEC and MSC
Labels: True = active, False = inactive

{"compound": "CC1(C)CCC(CN2CCN(c3ccc(C(=O)NS(=O)(=O)c4ccc(NCC5CCOCC5)c([N+](=O)[O-])c4)c(Oc4cnc5[nH]ccc5c4)c3)CC2)=C(c2ccc(Cl)cc2)C1 + COc1c(OCCCN2CCOCC2)ccc2c3n(c(=NC(=O)c4cnc(N)nc4)nc12)CCN3", "class.assignment": "True"}
{"compound": "CC(C)NCC(C(=O)N1CCN(c2ncnc3c2C(C)CC3O)CC1)c1ccc(Cl)cc1 (stereo not given) + CC(Nc1ncnc2nc[nH]c12)c1cc2cccc(Cl)c2c(=O)n1-c1ccccc1", "class.assignment": "False"}
{"compound": "C#Cc1c(F)ccc2cc(O)cc(-c3ncc4c(N5CC6CCC(C5)N6)nc(OCC56CCCN5CC(F)C6)nc4c3F)c12 (stereo not given) + Cc1nc(NC(=O)N2CCCC2C(N)=O)sc1-c1ccnc(C(C)(C)C(F)(F)F)c1", "class.assignment": "False"}
{"compound": "Cn1ncc(Cl)c1-c1cc(C(=O)NC(CN)Cc2cccc(F)c2)sc1Cl (stereo not given) + CC(Nc1ccc2c(c1)OCCn1cc(N3C(=O)OCC3C(F)F)nc1-2)C(N)=O", "class.assignment": "False"}
{"compound": "CC(Cn1ccc(-c2ccc(C#N)c(Cl)c2)n1)NC(=O)c1cc(C(C)O)[nH]n1 (stereo not given) + Cc1nc(NC(=O)N2CCCC2C(N)=O)sc1-c1ccnc(C(C)(C)C(F)(F)F)c1", "class.assignment": "False"}
